Target: GST-Nv-NF-kB (Ser allele) (Nematostella vectensis, UniProt A7UNT2 2-411)
Sequence: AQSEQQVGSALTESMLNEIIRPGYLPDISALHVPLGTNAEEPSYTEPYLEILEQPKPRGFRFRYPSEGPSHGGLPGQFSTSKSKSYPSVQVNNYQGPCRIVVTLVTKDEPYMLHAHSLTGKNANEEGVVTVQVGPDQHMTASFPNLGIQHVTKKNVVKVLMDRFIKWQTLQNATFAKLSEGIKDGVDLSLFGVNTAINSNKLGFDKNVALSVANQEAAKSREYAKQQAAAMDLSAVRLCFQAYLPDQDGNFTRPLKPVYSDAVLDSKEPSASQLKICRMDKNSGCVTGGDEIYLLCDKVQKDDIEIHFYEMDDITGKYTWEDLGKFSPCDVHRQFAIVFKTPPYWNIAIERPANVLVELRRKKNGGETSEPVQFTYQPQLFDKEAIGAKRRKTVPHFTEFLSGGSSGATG
Experiment: protein-binding microarray (PBM); PBM: ~300 nM protein, 6 mM HEPES pH 7.8, 80 mM KCl, 0.5 mM EDTA, 0.5 mM EGTA, 6% glycerol, 35 ng/ul poly-dIdC, 1% milk, 1 h, room temperature; high values mean tight binding
Conditions: dsDNA, one strand shown
Threshold 4 z-score. binding signal below it: Satisfied. binding signal at it or above: Not satisfied.

# entry.sequence, group
measured = [
    ("CCGATTAACATCAAGGAATTTCCTGATGTTAATCGGGTCTTGATTCGCTTGACGCTGCTG", "Satisfied"),
    ("CCGATTAACATCAGACAACCCCCTGATGTTAATCGGGTCTTGATTCGCTTGACGCTGCTG", "Not satisfied"),
    ("CCGATTAACATCACCCACTTCCCTGATGTTAATCGGGTCTTGATTCGCTTGACGCTGCTG", "Satisfied"),
    ("CCGATTAACATCAAAAATCACCCTGATGTTAATCGGGTCTTGATTCGCTTGACGCTGCTG", "Satisfied"),
    ("CCGATTAACATCAATTGCCCCCCTGATGTTAATCGGGTCTTGATTCGCTTGACGCTGCTG", "Satisfied"),
    ("CCGATTAACATCAGAAATTTTCCTGATGTTAATCGGGTCTTGATTCGCTTGACGCTGCTG", "Satisfied"),
]

====

Target: GST-Nv-NF-kB (Ser allele) (Nematostella vectensis, UniProt A7UNT2 2-411)
Sequence: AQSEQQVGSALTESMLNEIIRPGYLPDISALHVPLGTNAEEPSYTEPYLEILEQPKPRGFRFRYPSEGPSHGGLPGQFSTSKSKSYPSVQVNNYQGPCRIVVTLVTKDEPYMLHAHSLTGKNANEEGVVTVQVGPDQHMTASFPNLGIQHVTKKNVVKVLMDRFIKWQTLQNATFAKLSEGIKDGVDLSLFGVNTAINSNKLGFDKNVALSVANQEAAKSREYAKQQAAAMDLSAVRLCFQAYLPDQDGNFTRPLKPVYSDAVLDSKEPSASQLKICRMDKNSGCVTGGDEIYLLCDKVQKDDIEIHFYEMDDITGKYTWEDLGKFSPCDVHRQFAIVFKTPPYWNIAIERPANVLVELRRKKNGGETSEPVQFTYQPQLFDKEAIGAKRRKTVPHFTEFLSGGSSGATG
Assay: protein-binding microarray (PBM); PBM: ~300 nM protein, 6 mM HEPES pH 7.8, 80 mM KCl, 0.5 mM EDTA, 0.5 mM EGTA, 6% glycerol, 35 ng/ul poly-dIdC, 1% milk, 1 h, room temperature; high values mean tight binding
Conditions: dsDNA, one strand shown
Threshold 5 z-score. binding signal below it: y. binding signal at it or above: n.

# entry.sequence, group
data = [
    ("CCGATTAACATCAGAAATTCCCATGATGTTAATCGGGTCTTGATTCGCTTGACGCTGCTG", "n"),
    ("CCGATTAACATCAAACCTTCCCCTGATGTTAATCGGGTCTTGATTCGCTTGACGCTGCTG", "n"),
    ("CCGATTAACATCAGGGGAGTACATGATGTTAATCGGGTCTTGATTCGCTTGACGCTGCTG", "y"),
    ("CCGATTAACATCAGGGGGGAGACTGATGTTAATCGGGTCTTGATTCGCTTGACGCTGCTG", "n"),
]

====

Target: GST-Nv-NF-kB (Ser allele) (Nematostella vectensis, UniProt A7UNT2 2-411)
Sequence: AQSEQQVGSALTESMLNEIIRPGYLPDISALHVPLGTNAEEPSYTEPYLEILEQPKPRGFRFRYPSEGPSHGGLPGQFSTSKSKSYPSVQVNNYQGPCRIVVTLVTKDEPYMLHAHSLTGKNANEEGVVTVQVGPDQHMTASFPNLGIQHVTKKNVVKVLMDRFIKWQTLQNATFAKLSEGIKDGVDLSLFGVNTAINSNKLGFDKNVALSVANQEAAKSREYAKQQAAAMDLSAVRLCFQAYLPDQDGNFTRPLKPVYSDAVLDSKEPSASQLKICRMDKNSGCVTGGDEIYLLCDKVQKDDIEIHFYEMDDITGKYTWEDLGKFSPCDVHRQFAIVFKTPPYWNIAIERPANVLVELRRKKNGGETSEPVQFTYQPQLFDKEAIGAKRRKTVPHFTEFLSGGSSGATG
Test: protein-binding microarray (PBM); PBM: ~300 nM protein, 6 mM HEPES pH 7.8, 80 mM KCl, 0.5 mM EDTA, 0.5 mM EGTA, 6% glycerol, 35 ng/ul poly-dIdC, 1% milk, 1 h, room temperature; high values mean tight binding
Settings: dsDNA, one strand shown

# entry.sequence, binding signal, z-score
rows = [
    ("CCGATTAACATCAAGGGATTTCCTGATGTTAATCGGGTCTTGATTCGCTTGACGCTGCTG", 3.4),
    ("CCGATTAACATCAGGGACTTACCTGATGTTAATCGGGTCTTGATTCGCTTGACGCTGCTG", 5.49),
    ("CCGATTAACATCAAGGCATTCCCTGATGTTAATCGGGTCTTGATTCGCTTGACGCTGCTG", 2.11),
    ("CCGATTAACATCAAACCCCCCCCTGATGTTAATCGGGTCTTGATTCGCTTGACGCTGCTG", 5.04),
    ("CCGATTAACATCAAGGGGGGACTTGATGTTAATCGGGTCTTGATTCGCTTGACGCTGCTG", 4.99),
    ("CCGATTAACATCAAAACAATCCCTGATGTTAATCGGGTCTTGATTCGCTTGACGCTGCTG", 1.53),
]

====

Molecular target: GST-Hu-p50 (Homo sapiens, UniProt P19838 7-356)
Sequence (P19838 7-356): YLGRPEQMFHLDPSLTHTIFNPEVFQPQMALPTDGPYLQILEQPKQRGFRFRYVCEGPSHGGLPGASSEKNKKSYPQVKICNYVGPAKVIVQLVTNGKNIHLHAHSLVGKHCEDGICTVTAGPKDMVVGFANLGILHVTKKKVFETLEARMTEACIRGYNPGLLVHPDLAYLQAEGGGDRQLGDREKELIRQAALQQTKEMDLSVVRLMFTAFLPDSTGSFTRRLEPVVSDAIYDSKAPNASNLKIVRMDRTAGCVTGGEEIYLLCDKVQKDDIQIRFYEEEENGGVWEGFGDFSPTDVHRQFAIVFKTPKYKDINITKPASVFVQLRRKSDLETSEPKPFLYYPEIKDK
Experiment: protein-binding microarray (PBM); PBM: ~300 nM protein, 6 mM HEPES pH 7.8, 80 mM KCl, 0.5 mM EDTA, 0.5 mM EGTA, 6% glycerol, 35 ng/ul poly-dIdC, 1% milk, 1 h, room temperature; Ap Aiptasia and Nv Nematostella (sea anemones) / Co Capsaspora / Aq Amphimedon (sponge) / Dm Drosophila / Hu human; RHD is the Rel homology domain; high values mean tight binding
Settings: dsDNA, one strand shown

# entry.sequence, tgt, binding signal
data = [
    ("CCGATTAACATCAAACTTTCCCATGATGTTAATCGGGTCTTGATTCGCTTGACGCTGCTG", "GST-Hu-p50 (Homo sapiens, UniProt P19838 7-356)", "4.07 z-score"),
    ("CCGATTAACATCAAGGAAACCCCTGATGTTAATCGGGTCTTGATTCGCTTGACGCTGCTG", "GST-Hu-p50 (Homo sapiens, UniProt P19838 7-356)", "5.22 z-score"),
    ("CCGATTAACATCATTCCACCAGGTGATGTTAATCGGGTCTTGATTCGCTTGACGCTGCTG", "GST-Hu-p50 (Homo sapiens, UniProt P19838 7-356)", "1.04 z-score"),
    ("CCGATTAACATCAAGTATTTCCCTGATGTTAATCGGGTCTTGATTCGCTTGACGCTGCTG", "GST-Hu-p50 (Homo sapiens, UniProt P19838 7-356)", "3.64 z-score"),
    ("CCGATTAACATCAGGGGAAGGTATGATGTTAATCGGGTCTTGATTCGCTTGACGCTGCTG", "GST-Hu-p50 (Homo sapiens, UniProt P19838 7-356)", "3.52 z-score"),
    ("CCGATTAACATCAGAACTTCCCATGATGTTAATCGGGTCTTGATTCGCTTGACGCTGCTG", "GST-Hu-p50 (Homo sapiens, UniProt P19838 7-356)", "1.47 z-score"),
    ("CCGATTAACATCAGGATTGCCCCTGATGTTAATCGGGTCTTGATTCGCTTGACGCTGCTG", "GST-Hu-p50 (Homo sapiens, UniProt P19838 7-356)", "3.69 z-score"),
    ("CCGATTAACATCAAGCGTTCCCCTGATGTTAATCGGGTCTTGATTCGCTTGACGCTGCTG", "GST-Hu-p50 (Homo sapiens, UniProt P19838 7-356)", "3.66 z-score"),
    ("CCGATTAACATCAAGTACCCCCCTGATGTTAATCGGGTCTTGATTCGCTTGACGCTGCTG", "GST-Hu-p50 (Homo sapiens, UniProt P19838 7-356)", "3.94 z-score"),
]

Source listed as paper PMC5700166.
